Parameter %Inh: see the listing below.
- Test system: CLK1;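 also: KINOMEscan kinase panel screen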
- test-conditions: concentration: 1 μM, replicates: in singlicate; n = 1
assay-endpoint: %Inh (%)

compound | system-name | test-result
CN1C(=O)C(Nc2ccccc2)=C(c2ccccc2)C1=O [SB-300079] | CLK1 | 0
CCc1ccc(-c2ccc3c(c2)-c2nn(C)cc2S(=O)(=O)N3C)cc1 | CLK1 | 0
Cl.c1ccc(Cn2cnc3cc(Nc4ncnc5ccccc45)ccc32)cc1 [GW272142] | CLK1 | 27
O=C1NC(=O)C(c2ccccc2)=C1Nc1cccc(O)c1 [SB-390534] | CLK1 | 40
Cc1cccc(-c2nc(Nc3ccc4c(cnn4C)c3)c3ccccc3n2)n1 [GW876731] | CLK1 | 0
COc1cccc(-n2cnc3c(N)ncnc32)c1 [SKF-97416] | CLK1 | 6
COc1ccc(-c2coc3ccc(-c4nnc(SCc5cccc(C#N)c5)o4)cc23)cc1 | CLK1 | 47
OCCCNc1nccc(-c2c(-c3cccc(C(F)(F)F)c3)nn3cc(C(F)(F)F)ccc23)n1 [GW630813] | CLK1 | 9
Nc1nccc2scc(-c3ccc4c(c3)CCN4C(=O)Cc3ccccc3)c12 [GSK2576924] | CLK1 | 34
CCC(=O)c1c(-c2ccccc2)c2cc(Cl)ccc2c(=O)n1Cc1cc(C(=O)NC2CC2)n(C)n1 | CLK1 | 0
Nc1nc(-c2ccccc2F)c(-c2ccnc3ccccc23)s1 [GW560459] | CLK1 | 12
O=C(Nc1n[nH]c2nc(-c3ccccc3)c(Cl)cc12)C1CC1 [SB-734909] | CLK1 | 0
Nc1ncnc2c1ncn2-c1cccc2ccccc12 [SKF-97184] | CLK1 | 0
Cc1ccc(-c2ccc3c(ccc4sc5c(c43)NC[C@@H](C)N=C5N(C)C)n2)cn1 | CLK1 | 0
COc1cccc(C2=C(Nc3cccc(C(=O)O)c3)C(=O)NC2=O)c1 [SB-390770] | CLK1 | 9
C[C@@H]1CC[C@H](C(=O)NC2CCCCC2)CN1c1cc(-c2ccc3c(N)n[nH]c3c2)nc(N)n1 [GSK2291363] | CLK1 | 40
Nc1n[nH]c2nnc(-c3ccccc3)c(-c3ccccc3)c12 [GW554060] | CLK1 | 23
Cc1nnc(-c2ccc3ncn(-c4ccc(S(C)=O)cc4)c3c2)o1 (stereo not drawn) | CLK1 | 46
O=C(Nc1ccc2c(c1)OCO2)NC1CCN(c2ccnc(NCc3ccc(F)cc3)n2)CC1 [GSK1379859] | CLK1 | 23
CCCNC(=O)Nc1ccc(Oc2ncnc3ccn(C)c23)cc1 | CLK1 | 0
Cc1nc(N(C)[C@H]2CN(C(=O)CC#N)CC[C@H]2C)c2cc[nH]c2n1 | CLK1 | 13
